- Tested on: Plasmodium falciparum Sir2 (PF13_0152, Sir2A)
- testDescription: pfSir2 binders on small-molecule microarrays, primary screen, biochemical, small-molecule microarray, 635 nm fluorescence (AID 1098);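 also: score merges spot fluorescence intensity with its signal-to-noise ratio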
- studyConditions: small-molecule microarray binding, fluorescence 635 nm; higher = more signal
Provide the recorded composite z-score for the entries that follow.
Just the number, please.

Form: compound = "Cc1ccc(S[C@]2(C(=O)NCc3ccccc3)CC(=O)N(Cc3ccccc3Cl)[C@@H]2c2ccc(CO)cc2)cc1" ; composite z-score = 1.07

Value of measured composite z-score for the entry "CN(C)CCCC[C@@H]1NC(=O)[C@H]2C[C@@H](C(=O)NCCCCCCNC(=O)CS)[C@@H](c3cccc(OCCO)c3)N2C1=O" : 0.872

Summary for this compound, "COc1ccc([Si](C)(C)[C@H]2[C@H](CC(=O)N3CCC[C@H]3CO)O[C@@]3(C(=O)N(Cc4cccc(N5CCCCC5=O)c4)c4ccccc43)[C@@H]2C)cc1" : composite z-score is 1.01

Noted for CCCCCN1CC=CC23O[C@@H]4/C=C\CCCOC(=O)C4[C@H]2C(=O)N(CCCCCO)[C@@H]3C1=O (stereo not given in full) : its composite z-score reads 0.447

What the record says about "O=C(N1CCOCC1)[C@]1(CCS(=O)(=O)c2ccccc2)N=C(c2ccc(OCCCO)cc2)O[C@@H]1c1ccccc1" : composite z-score is 1.5

Looking up "CC(C)(C)OC(=O)CC[C@@]1(C(=O)N2CCOCC2)N=C(c2ccc(OCCCO)cc2)O[C@@H]1c1ccccc1CN=[N+]=[N-]" , I see its composite z-score listed as 1.23

// composite z-score value for [N-]=[N+]=Nc1ccccc1C[C@@]1(C(=O)NCC(O)CO)N=C(c2ccc(OCCCO)cc2)O[C@@H]1c1ccccc1N=[N+]=[N-] (stereo not given in full) : 1.05

# composite z-score (compound: "COC(=O)[C@]1(Cc2ccccc2CN=[N+]=[N-])N=C(c2ccc(OCCCO)cc2)O[C@@H]1c1ccccc1N=[N+]=[N-]" ) is 0.973

Per the record, "COc1ccc([Si](C)(C)[C@H]2[C@H](CCO)O[C@@]3(C(=O)N(Cc4ccccc4)c4ccc(NC(=O)[C@H](C)O)cc43)[C@@H]2C)cc1" has composite z-score of 1.18

composite z-score in this record for "Cc1ccc(S[C@]2(C(=O)NCc3ccccc3)CC(=O)N(Cc3ccccc3C(F)(F)F)[C@@H]2c2ccc(CO)cc2I)cc1" : 1.62

Measured composite z-score, CC(C)c1ccc(NN2C(C(O)c3ccccc3)C=CC3C(=O)N(c4ccccc4)C(=O)C32)cc1 (stereo not given) : 1.26

For record "CC(C)(C)OC(=O)N1[C@@H](C=C(Br)Br)COC1(C)C" the listed composite z-score is 0.395

For reference, reported composite z-score for "COc1ccc(CCNC(=O)[C@@H]2c3ccccc3C(=O)N(Cc3cc(F)cc(C(F)(F)F)c3)[C@H]2c2ccc(CO)cc2)cc1" stands at 0.181

Lab book: composite z-score of "O=C(O)C1=CC[C@H]2C(=O)N(c3ccccc3)C(=O)[C@@H]12" noted as 0.767

The reported value for "COCCOC(=O)N1C(=O)[C@@]2(c3cc(C#CC4(O)CCCCCC4)ccc31)[C@H](C(N)=O)[C@H]1C(=O)O[C@H](c3ccccc3)[C@H](c3ccccc3)N1[C@@H]2c1ccc(OCCO)cc1" in terms of composite z-score is 0.804

Reported composite z-score for "Cc1c(NC(=O)/C(C#N)=C/C=C/c2ccc([N+](=O)[O-])cc2)c(=O)n(-c2ccccc2)n1C" was 1.18

Lab note: CS(=O)(=O)CCOC(=O)C1=CC(CCCO)=CC(C2CC2)N(Cc2sc3ccccc3c2Cl)C=C1C(=O)OCCS(C)(=O)=O (stereo not given) gave composite z-score of 1.38

For "O=C1O[C@H](c2ccccc2)[C@H](c2ccccc2)N2[C@H]1[C@@H](C(=O)N1CCCCCCC1)[C@]1(C(=O)Nc3ccc(C#CCCO)cc31)[C@H]2c1ccc(O)cc1" the compound record lists composite z-score as 2.11

Given item "COCCOC(=O)N1C(=O)[C@@]2(c3cc(C#CCC(C(=O)OC)C(=O)OC)ccc31)[C@H](C(N)=O)[C@H]1C(=O)O[C@H](c3ccccc3)[C@H](c3ccccc3)N1[C@@H]2c1ccccc1OCCO" , the value recorded as its composite z-score is 0.997

Form: compound = CCOC(=O)C1=CCC(c2ccncc2)N(S(=O)(=O)c2ccc(C)cc2)C1 (stereo not given) ; composite z-score = 1.03

Per the record, "O=C1C[C@@](C(=O)NCC(F)(F)F)(c2ccc([N+](=O)[O-])cc2)[C@@H](c2ccc(CO)cc2I)N1CC12CC3CC(CC(C3)C1)C2" has composite z-score of 1.5

Kindly note the recorded composite z-score for "CC[C@@H](O[Si](C#C[Si](C(C)C)(C(C)C)C(C)C)(C(C)C)C(C)C)c1cn(Cc2cccc(Cl)c2)nn1" , which is 0.433

Field composite z-score (entry "CCCCCCc1nc(Cc2cc(OC)c(OC)c(OC)c2)c(C)c2c1[Si](C(C)C)(C(C)C)OC2" ) reads 0.197

Looking up COC(=O)c1ccc(OC)c(/C=C\CC(OC(=O)c2ccncc2)c2ccccc2)c1 (stereo not given) , I found its composite z-score recorded as -0.475

The compound listed as "Cc1ccc(S[C@]2(C(=O)NCCN3CCOCC3)CC(=O)N(C(C)C)[C@@H]2c2ccc(CO)cc2I)cc1" shows composite z-score equal to 1.89

Query "CC(C)C[C@@H]1NC(=O)[C@@H]2C[C@H](C(=O)NCCCCCNC(=O)CS)[C@H](c3ccc(O)cc3)N2C1=O" yields composite z-score of 1.67

The compound identified as "CCCCCCc1nc(-c2ccc(OC)nc2)c(C)c2c1[Si](C(C)C)(C(C)C)OC2" registered its composite z-score at -0.299

Item: "COCCOC(=O)N1C(=O)[C@@]2(c3cc(C#CCC(C(=O)OC)C(=O)OC)ccc31)[C@H](C(=O)N1CCc3cc(OC)c(OC)cc3C1)[C@H]1C(=O)O[C@H](c3ccccc3)[C@H](c3ccccc3)N1[C@@H]2c1ccccc1OCCO" | composite z-score: 0.496

Kindly note the recorded composite z-score for COc1ccc(NN2C(C(O)c3ccccc3)C=CC3C(=O)N(C4CCCCC4)C(=O)C32)cc1 (stereo not given) , which is 1.25

# composite z-score of "C=C(C(=O)CC[C@H](OC(=O)c1ccccc1-c1ccccc1C(=O)O)c1ccc(OCCO)cc1)C(C)C" = 1.26
